All figures here come from PubChem BioAssay.

Molecular target: Left-right determination factor 2 (Homo sapiens)
Assay: LEFTY2 binders on small-molecule microarrays, primary screen, biochemical, small-molecule microarray, 635 nm fluorescence scan (AID 1110)
Conditions: LEFTY2 binding, higher = more signal
Parameter Measured: composite z-score
Just the number.

Enquiry: Report composite z-score for C=CCOC(=O)[C@H]1[C@@H]2C(=O)O[C@@H](c3ccccc3)[C@@H](c3ccccc3)N2[C@@H](c2ccc(OCCOC(=O)[C@H]3C[C@H]4C(=O)NCC(=O)N4[C@H]3c3cccc(OCCO)c3)cc2)[C@]12C(=O)Nc1ccc(I)cc12
Return: 0.541

Enquiry: Report composite z-score for CN1C2C=C(c3ccc(CO)cc3)C(C3C(=O)N(C(N)=O)C(=O)C32)C1C1CC1 (stereo unspecified)
Return: -0.423

Enquiry: Report composite z-score for CC[C@@H](O[Si](C#C[Si](C(C)C)(C(C)C)C(C)C)(C(C)C)C(C)C)c1cn([C@H](CO)Cc2ccccc2)nn1
Return: 0.498

Enquiry: Report composite z-score for COc1ccc([Si](C)(C)[C@@H]2[C@@H](CC(=O)N(CCO)Cc3ccccc3)O[C@]3(C(=O)N(Cc4cccc(I)c4)c4ccccc43)[C@H]2C)cc1
Return: 0.741

Enquiry: Report composite z-score for COCCCNC(=O)[C@]1(Cc2ccccc2CN=[N+]=[N-])N=C(c2ccc(OCCCO)cc2)O[C@@H]1c1ccccc1N=[N+]=[N-]
Return: -0.581

Enquiry: Report composite z-score for CC(C)C[C@@H]1NC(=O)[C@@H]2C[C@H](C(=O)NCCCCCNC(=O)CS)[C@H](c3ccc(O)cc3)N2C1=O
Return: 0.104

====

Molecular target: Left-right determination factor 2 (Homo sapiens) (UniProt O00292)
Sequence (O00292 whole entry, looked up): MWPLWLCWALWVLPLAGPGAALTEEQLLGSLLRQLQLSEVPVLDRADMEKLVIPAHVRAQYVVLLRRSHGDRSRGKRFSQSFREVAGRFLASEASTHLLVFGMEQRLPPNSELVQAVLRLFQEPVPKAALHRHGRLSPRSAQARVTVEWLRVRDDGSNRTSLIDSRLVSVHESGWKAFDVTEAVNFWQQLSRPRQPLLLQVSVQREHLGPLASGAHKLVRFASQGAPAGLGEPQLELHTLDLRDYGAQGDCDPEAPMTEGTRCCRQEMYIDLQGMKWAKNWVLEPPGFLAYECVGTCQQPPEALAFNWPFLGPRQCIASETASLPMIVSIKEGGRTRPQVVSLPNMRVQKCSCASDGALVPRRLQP
Assay: LEFTY2 binders on small-molecule microarrays, primary screen, biochemical, small-molecule microarray, 635 nm fluorescence scan (AID 1110)
Conditions: LEFTY2 binding, higher = more signal
Answer each item with its documented composite z-score.
Just the number.

Enquiry: Report composite z-score for COCCOC(=O)N1C(=O)[C@@]2(c3cc(C#CC4(O)CCCCCC4)ccc31)[C@H](C(N)=O)[C@H]1C(=O)O[C@H](c3ccccc3)[C@H](c3ccccc3)N1[C@@H]2c1ccc(OCCO)cc1
Return: 0.73

Enquiry: Report composite z-score for C=CCC(OC(C)=O)[C@@H]1[C@@H](N(Cc2ccc(-c3ccccc3)cc2)C(=O)Cc2ccc(OC)cc2)c2cc(OCCCO)ccc2N1C(=O)c1ccc2ccccc2c1 (stereo partly drawn)
Return: 0.215

Enquiry: Report composite z-score for CC1C2C(CCCO)=CC(C3C(=O)N(C(N)=O)C(=O)C23)N1Cc1cccc(OC(F)(F)F)c1 (stereo not drawn)
Return: 0.246

Enquiry: Report composite z-score for CN(C)CCCCNC(=O)[C@H]1C[C@H]2C(=O)N[C@@H](CCCCN(C)C)C(=O)N2[C@H]1c1ccc(O)cc1
Return: 0.435

Enquiry: Report composite z-score for COCCOC(=O)N1C(=O)[C@@]2(c3cc(C#CCNC(N)=O)ccc31)[C@H](C(=O)N1CCN(c3ncccn3)CC1)[C@H]1C(=O)O[C@H](c3ccccc3)[C@H](c3ccccc3)N1[C@@H]2c1ccc(O)cc1
Return: -1.67

Enquiry: Report composite z-score for O=C1C2C=CC(C(O)c3ccccn3)N(Nc3ccc([N+](=O)[O-])cc3)C2C(=O)N1c1ccccc1 (stereo not drawn)
Return: 0.335

Enquiry: Report composite z-score for COCCCNC(=O)[C@@]1(Cc2ccccc2I)c2ccccc2C(=O)N(Cc2ccccc2C(F)(F)F)[C@H]1c1ccc(CO)cc1
Return: -2.26

Enquiry: Report composite z-score for COc1ccc([Si](C)(C)[C@H]2[C@H](CC(=O)N(CCO)Cc3ccccc3)O[C@@]3(C(=O)N(Cc4cccc(N5CCCCC5=O)c4)c4ccccc43)[C@@H]2C)cc1
Return: 0.384

Enquiry: Report composite z-score for Cc1ccc(S(=O)(=O)N2[C@@H](c3ccccc3)C(C(=O)O)=CC[C@H]2c2ccc(F)cc2)cc1
Return: -1.25

Enquiry: Report composite z-score for C[C@]12C(=O)N(CCO)[C@@H]3C(=O)N(c4ccc(Cl)cc4)CC=CC31O[C@@H]1/C=C\CCCOC(=O)C12 (stereo partly drawn)
Return: -1.59

Enquiry: Report composite z-score for COC(=O)[C@H]1N=C(c2ccc(OCCCO)cc2)O[C@H]1c1ccccc1N=[N+]=[N-]
Return: -0.223

Enquiry: Report composite z-score for COc1ccc(CCNC(=O)[C@@H]2c3ccccc3C(=O)N(Cc3cc(F)cc(C(F)(F)F)c3)[C@H]2c2ccc(CO)cc2)cc1
Return: 0.262

Enquiry: Report composite z-score for CC(=O)NCCCC[C@@H]1NC(=O)[C@H]2C[C@@H](C(=O)O)[C@@H](c3cccc(OCCO)c3)N2C1=O
Return: 0.978

Enquiry: Report composite z-score for COCCCNC(=O)[C@@]1(c2ccc([N+](=O)[O-])cc2)CC(=O)N(C2CCCCC2)[C@@H]1c1ccc(CO)cc1I
Return: -0.199

Enquiry: Report composite z-score for CCCCN1CC=CC23O[C@@H]4C=CCCOC(=O)C4[C@H]2C(=O)N(CCO)[C@@H]3C1=O (stereo partly drawn)
Return: -1.02

Enquiry: Report composite z-score for COc1ccc([Si](C)(C)[C@H]2[C@H](CC(=O)N3CCC[C@H]3CO)O[C@@]3(C(=O)N(C)c4c(Br)cc(C)cc43)[C@@H]2C)cc1
Return: 0.946

Enquiry: Report composite z-score for CCCCCCc1nc(-c2ccc(OC)nc2)c(C)c2c1[Si](C(C)C)(C(C)C)OC2
Return: 0.445

Enquiry: Report composite z-score for COc1ccc(CCNC(=O)[C@@]2(c3ccc([N+](=O)[O-])cc3)CC(=O)N(C3CCCCC3)[C@@H]2c2ccc(CO)cc2I)cc1
Return: 0.497

Enquiry: Report composite z-score for COC(=O)C1(CC(C)C)C=C2C(=C(C)C(=O)C2C)CN1 (stereo not drawn)
Return: -0.253

Enquiry: Report composite z-score for O=C1O[C@H](c2ccccc2)[C@H](c2ccccc2)N2[C@H]1[C@@H](C(=O)N1CCN(c3ncccn3)CC1)[C@]1(C(=O)Nc3ccc(C#CC4(O)CCCCCC4)cc31)[C@H]2c1ccc(O)cc1
Return: 0.15

Enquiry: Report composite z-score for COCCOC(=O)N1C(=O)[C@@]2(c3ccccc31)[C@H](C(=O)Nc1nc3ccccc3s1)[C@H]1C(=O)O[C@H](c3ccccc3)[C@H](c3ccccc3)N1[C@@H]2c1ccccc1OCCO
Return: 0.146

Enquiry: Report composite z-score for O=C1NC(=O)C2C1C=CC(C(O)C(O)CO)N2Nc1ccccn1 (stereo not drawn)
Return: 0.322

Enquiry: Report composite z-score for O=C1O[C@H](c2ccccc2)[C@H](c2ccccc2)N2[C@H]1[C@@H](C(=O)N1CCCCCCC1)[C@]1(C(=O)Nc3ccc(C#CCCO)cc31)[C@H]2c1ccc(O)cc1
Return: 1.69

Enquiry: Report composite z-score for O=C1NC(=O)C2C1C=CC(C(O)c1ccc(F)cc1)N2Nc1ccc(Cl)cc1Cl (stereo not drawn)
Return: -0.752

Enquiry: Report composite z-score for C=C[C@H](OC)[C@@H](O)c1ccc(OC)c(O)c1
Return: -1.77

Enquiry: Report composite z-score for COC(=O)[C@@]1(Cc2ccc(F)cc2)[C@H]2c3cc(C(=O)N4CCCC4)n(C[C@H](O)CO)c3C[C@H]2CN1C(=O)c1ccccc1
Return: -0.358

Enquiry: Report composite z-score for COc1ccc([Si](C)(C)[C@H]2[C@H](CC(=O)N3CCC[C@H]3CO)O[C@@]3(C(=O)N(C)c4ccccc43)[C@@H]2C)cc1
Return: 0.239

Enquiry: Report composite z-score for [N-]=[N+]=Nc1ccccc1C[C@@]1(C(=O)NCC(O)CO)N=C(c2ccc(OCCCO)cc2)O[C@@H]1c1ccccc1N=[N+]=[N-] (stereo partly drawn)
Return: -0.458

====

Test: binders of probe aHhip on microarray, primary screen, stem cell growth factor project, biochemical, small-molecule microarray, fluorescence 635/667 (AID 1087);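 also: score merges spot fluorescence at 667nm with spot signal to noise ratio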
Details: higher = more signal
Parameter Measured: composite z-score
Just the number.

Enquiry: Report composite z-score for CC[C@@H](O[Si](C#C[Si](C(C)C)(C(C)C)C(C)C)(C(C)C)C(C)C)c1cn([C@H](CO)Cc2ccccc2)nn1
Return: -0.0994

Enquiry: Report composite z-score for O=C(CS)NCCCCCCNC(=O)[C@H]1C[C@H]2C(=O)NCC(=O)N2[C@H]1c1cccc(OCCO)c1
Return: 0.0024

Enquiry: Report composite z-score for COc1ccc(CCNC(=O)[C@@H]2c3ccccc3C(=O)N(C(C)C)[C@H]2c2ccc(CO)cc2)cc1
Return: -0.379

Enquiry: Report composite z-score for COc1cccc(C)c1NC(=O)O[C@H]1[C@H](OC(=O)Nc2ccccc2)[C@@H](OC(=O)Nc2ccccc2)[C@@H](OC)O[C@@H]1CO
Return: 0.149
